target: Mu-type opioid receptor (Homo sapiens, UniProt P35372); assay: Antagonist activity at human mu opioid receptor expressed in CHO cells assessed as inhibition of DAMGO-induced […]GTPgammaS binding after 60 mins by scintillation counting; assay type: functional, cell-based; settings: read-out: IC50
Sequence (P35372 whole entry): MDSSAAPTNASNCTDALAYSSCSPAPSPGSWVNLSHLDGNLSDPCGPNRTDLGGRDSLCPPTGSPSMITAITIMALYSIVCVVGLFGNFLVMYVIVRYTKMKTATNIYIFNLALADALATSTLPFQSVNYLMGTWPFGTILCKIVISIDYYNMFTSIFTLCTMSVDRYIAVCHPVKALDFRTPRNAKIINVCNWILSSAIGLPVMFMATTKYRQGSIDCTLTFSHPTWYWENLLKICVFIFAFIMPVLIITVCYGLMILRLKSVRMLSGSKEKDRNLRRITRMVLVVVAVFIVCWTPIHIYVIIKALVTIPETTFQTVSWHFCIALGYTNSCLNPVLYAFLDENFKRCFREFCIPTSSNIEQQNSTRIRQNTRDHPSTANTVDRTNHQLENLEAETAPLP
Catalogue of pIC50 values
Remember the convention: pIC50 equals -log10 of concentration in molar.

Here are 2 compounds together with their reported answers.
>>> reported_result("Oc1ccc(CNc2ccc3c(c2)[C@@]24CCCC[C@H]2[C@@H](C3)N(CC2CC2)CC4)cc1")
8.12
>>> reported_result("O=[N+]([O-])c1cccc(CNc2ccc3c(c2)[C@@]24CCCC[C@H]2[C@@H](C3)N(CC2CCC2)CC4)c1")
8.17

Proceeding to the next compound to report its pIC50.
Problem: Record request: pIC50 value, item COc1ccc(CNc2ccc3c(c2)[C@@]24CCCC[C@H]2[C@@H](C3)N(CC2CC2)CC4)cc1
Solution: 8.00

Origin of the recorded values: ChEMBL document CHEMBL2046406
